target: HLA-A*02:01; assay: IEDB peptide-MHC binding, purified MHC/direct/fluorescence; filed as Kd, often an IC50 or EC50 that approximates it; bounds were set here for any values at or beyond the usual limits of such assays; settings: source organism: Orthohantavirus andesense
pKd: −log10 of the molar value.
Observed property: pKd

Query: # get_value(readout='pKd', item= TRDHVNLVL )
Result: ≤ 4.70

====

biological target: HLA-A*01:01; test: IEDB peptide-MHC binding, purified MHC/direct/fluorescence; filed as Kd, often an IC50 or EC50 that approximates it; bounds were set here for any values at or beyond the usual limits of such assays; details: source organism: Shigella flexneri
pKd: −log10 of the molar value.
Observed property: pKd

Query: # get_value(readout='pKd', item= VVISKKDTY )
Result: ≤ 4.70

====

molecular target: HLA-A*02:01; test: IEDB peptide-MHC binding, purified MHC/competitive/fluorescence; filed as Kd, often an IC50 or EC50 that approximates it; bounds were set here for any values at or beyond the usual limits of such assays; conditions: source organism: Influenza A virus (A/Victoria/1968(H3N2))
pKd: −log10 of the molar value.
Observed property: pKd

Query: # get_value(readout='pKd', item= NMDKAVKLY )
Result: ≤ 4.70

====

target: HLA-B*46:01; assay: IEDB peptide-MHC binding, purified MHC/competitive/fluorescence; filed as Kd, often an IC50 or EC50 that approximates it; bounds were set here for any values at or beyond the usual limits of such assays; settings: source organism: Burkholderia vietnamiensis G4
Observed property: Kd

Query: # get_value(readout='Kd', item= GVNDTEAHA )
Result: ≥ 20 µM

====

target: HLA-A*02:11; assay: IEDB peptide-MHC binding, purified MHC/direct/fluorescence; filed as Kd, often an IC50 or EC50 that approximates it; bounds were set here for any values at or beyond the usual limits of such assays; settings: source organism: Influenza A virus (A/ferret/Maryland/P10-UMD/2008(H9N2))
pKd: −log10 of the molar value.
Observed property: pKd

Query: # get_value(readout='pKd', item= NMDKAVKLY )
Result: ≤ 4.70

====

molecular target: HLA-B*18:01; experiment: IEDB peptide-MHC binding, purified MHC/direct/fluorescence; filed as Kd, often an IC50 or EC50 that approximates it; bounds were set here for any values at or beyond the usual limits of such assays; conditions: source organism: Camelpox virus M-96
Observed property: Kd

Query: # get_value(readout='Kd', item= LTFLHTLYK )
Result: ≥ 20 µM

Query: Proceed to ATNDGLIKK
Result: ≥ 20 µM

====

molecular target: HLA-A*32:15; assay: IEDB peptide-MHC binding, purified MHC/competitive/fluorescence; filed as Kd, often an IC50 or EC50 that approximates it; bounds were set here for any values at or beyond the usual limits of such assays; conditions: source organism: Campylobacter jejuni
Observed property: Kd

Query: # get_value(readout='Kd', item= YTKKYLLSF )
Result: 235 nM

====

target: HLA-A*32:01; test: IEDB peptide-MHC binding, purified MHC/competitive/radioactivity; filed as Kd, often an IC50 or EC50 that approximates it; bounds were set here for any values at or beyond the usual limits of such assays; conditions: source organism: Dengue virus 3 Singapore/8120/1995
Observed property: Kd (nM)
The reply should be a number in nM, with the unit left off.

Query: # get_value(readout='Kd', item= KVMEITAEW )
Result: 14.3
